assay: Intrinsic clearance in rat hepatocytes assessed per million cells; assay type: ADME, cell-based, Hepatocyte; details: read-out: CLH
Classify on hepatocyte CLint using bin 0 (below 20 µL/min/1e6 cells), bin 1 (20 µL/min/1e6 cells to below 200 µL/min/1e6 cells), bin 2 (200 µL/min/1e6 cells or more)

Take a look at these entries with their results.
1. Cc1ccnn1CCOc1cc(N2CCCCC2)ncn1; bin 2
2. CN(C)c1cc(OCCc2ccc(F)cc2)ncn1; bin 2

**Q:** Which category does the recorded hepatocyte CLint put Fc1cnn([C@H]2C[C@H](c3cc(O[C@H]4C[C@@H](n5cccn5)C4)ncn3)C2)c1 in?
**A:** bin 0

**Q:** Which category does the recorded hepatocyte CLint put Fc1ccc(CCOc2cc(N3CCCC3)ncn2)cc1 in?
**A:** bin 2

**Q:** Which category does the recorded hepatocyte CLint put Fc1ccc(CCOc2cc(N3CCCCC3)ncn2)cc1 in?
**A:** bin 1

###

Field: IC50. Provide a value for each of the compounds that follow.
molecular target: UniProt:Q9BW60; assay: Inhibition of ELOVL1 in HEK293 cells assessed as reduction of C26:0 lipo phosphatidyl choline synthesis; format: cell-based
Numbers only, in nM.

1) c1ccc([C@H]2CN(c3cc(O[C@H]4C[C@@H](c5nnco5)C4)ncn3)CCO2)cc1; 9
2) c1ccc([C@H]2CN(c3cc(O[C@H]4C[C@@H](n5cccn5)C4)ncn3)CCO2)cc1; 0.4
3) Fc1ccc(CCOc2cc(N3CCCCC3)ncn2)cc1; 80
4) Cc1ccnn1CCCOc1cc(N2CCOC(C(F)(F)F)C2)ncn1 (stereo unspecified); 7
5) Cc1ccnn1CCCOc1cc(N2C3COCC2C3)ncn1; 230

Please look at the following compound next.
**Q:** I'd like to know its IC50. The compound in question is Fc1ccc(CCOc2cc(N3CCCC3)ncn2)cc1
**A:** 430

###

molecular target: Very long chain fatty acid elongase 1 (Homo sapiens, UniProt Q9BW60); assay: Inhibition of ELOVL1 in HEK293 cells assessed as reduction of C26:0 lipo phosphatidyl choline synthesis; format: cell-based
Sequence (Q9BW60 whole entry): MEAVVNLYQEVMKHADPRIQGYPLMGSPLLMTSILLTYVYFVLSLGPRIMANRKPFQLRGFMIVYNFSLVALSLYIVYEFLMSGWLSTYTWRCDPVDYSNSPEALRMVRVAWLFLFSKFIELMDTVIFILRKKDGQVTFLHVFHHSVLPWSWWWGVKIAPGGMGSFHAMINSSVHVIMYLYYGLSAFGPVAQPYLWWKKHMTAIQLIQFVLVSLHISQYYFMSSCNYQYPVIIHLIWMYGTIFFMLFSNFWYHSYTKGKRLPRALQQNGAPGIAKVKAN
RECORDED ENDPOINT: IC50 (nM)
Numbers only, in nM.

1) c1cnn([C@H]2C[C@@H](Oc3cc([C@H]4C[C@@H](n5cccn5)C4)ncn3)C2)c1; 210
2) c1ccc([C@H]2CN(c3cc(O[C@H]4C[C@@H](c5ncco5)C4)ncn3)CCO2)cc1; 5
3) Fc1ccc(CCOc2ccc(-c3cccnc3)cn2)cc1; 6700
4) CN(C)c1cc(OCCc2ccc(F)cc2)ncn1; 60
5) Cc1ccnn1CCCOc1cc(N2CCOC(c3ccnn3C)C2)ncn1 (stereo unspecified); 140

Please look at the following compound next.
**Q:** // map Fc1ccc(CCOc2cc(N3CCCCCC3)ncn2)cc1 to recorded IC50 (system: Very long chain fatty acid elongase 1 (Homo sapiens, UniProt Q9BW60))
**A:** 230

###

experiment: Intrinsic clearance in rat hepatocytes assessed per million cells; type: ADME, cell-based, Hepatocyte; conditions: read-out: CLH
// No strictly below 20 µL/min/1e6 cells in hepatocyte CLint; Yes otherwise

1. Fc1ccn([C@H]2C[C@H](c3cc(O[C@H]4C[C@@H](n5cccn5)C4)ncn3)C2)n1; No
2. Cc1ccnn1CCCOc1cc(N2CCCCC2)ncn1; Yes
3. Cc1ccnn1CCCOc1cc(N2CCOC(c3ccnn3C)C2)ncn1 (stereo not drawn); Yes
4. CN(c1cc(OCCc2ccc(F)cc2)ncn1)C1CCOC1 (stereo not drawn); Yes
5. c1ccc([C@H]2CN(c3cc(O[C@H]4C[C@@H](c5nnco5)C4)ncn3)CCO2)cc1; No
6. c1cnn([C@H]2C[C@@H](Oc3cc([C@H]4C[C@H](n5cccn5)C4)ncn3)C2)c1; No
7. c1ccc([C@H]2CN(c3cc(O[C@H]4C[C@@H](n5ccnn5)C4)ncn3)CCO2)cc1; No
8. Fc1ccc(CCOc2cc(N3CCOCC3)ncn2)cc1; Yes
9. Fc1ccc(CCOc2cc(N3CCCCCC3)ncn2)cc1; Yes
10. c1cnn([C@H]2C[C@@H](Oc3cc([C@H]4C[C@@H](n5cccn5)C4)ncn3)C2)c1; No

**Q:** Form field: hepatocyte CLint at least 20 µL/min/1e6 cells? Entry: c1ccc([C@H]2CN(c3cc(O[C@H]4C[C@@H](c5ccccc5)C4)ncn3)CCO2)cc1
**A:** No

**Q:** Form field: hepatocyte CLint at least 20 µL/min/1e6 cells? Entry: Cc1ccnn1CCCOc1cc(N2CCOC(c3ccccc3)C2)ncn1 (stereo not drawn)
**A:** Yes
